- Measurement Protocol: Cytotoxicity against human A549 cells incubated for 1 to 11 days by MTT assay
- Format: cell-based
- Setup Conditions: A549 cells
Reported Property: GI50

// below: answered compounds
CCCCCc1cc2c(=O)n(CC3CC3)cnc2s1 : > 100 µg/mL
CCCCCCCCCCc1cc2c(=O)n(CCO)cnc2s1 : > 100 µg/mL

Next compound, please.
Item "CCCCCCCc1cc2c(=O)n(CCCBr)cnc2s1" has what recorded GI50?
34.1 µg/mL

----------
- Measurement Protocol: Antibacterial activity against active stage of Mycobacterium bovis BCG ATCC 35743 assessed as cell viability after 8 days by nitrate reductase assay
- Type: functional, Mycobacterium bovis BCG str. ATCC 35743
- Setup Conditions: Mycobacterium tuberculosis variant bovis BCG, ATCC 35743, 192 h
Hi! Could you tag entries with MIC90 below 2 mg/L as MET, and those at or above as NOT MET? Much appreciated.

CCCCCCc1cc2c(=O)n(CCN=[N+]=[N-])cnc2s1 : NOT MET
CCCCCCCc1cc2c(=O)n(CC3CC3)cnc2s1 : MET
CCCCCCCc1cc2c(=O)n(CCCBr)cnc2s1 : NOT MET
CCCCCCCc1cc2c(=O)n(CCN=[N+]=[N-])cnc2s1 : MET
CCCCCc1cc2c(=O)n(CCC)cnc2s1 : NOT MET
CCCCCCCCCCc1cc2c(=O)n(CCO)cnc2s1 : NOT MET
C=CCCCCCCCc1cc2c(=O)n(CCBr)cnc2s1 : NOT MET
CCCCCCCc1cc2c(=O)n(CC#N)cnc2s1 : MET
CO[C@H]1/C=C/O[C@@]2(C)Oc3c(C)c(O)c4c(O)c(c(/C=N/N5CCN(C)CC5)c(O)c4c3C2=O)NC(=O)/C(C)=C\C=C\[C@H](C)[C@H](O)[C@@H](C)[C@@H](O)[C@@H](C)[C@H](OC(C)=O)[C@@H]1C : MET

We next turn to a different compound, shown below.
Dear reviewer, please state whether "CCCCCCCCCCc1cc2c(=O)n(CCBr)cnc2s1" has MIC90 strictly beneath 2 mg/L.
NOT MET

----------
- Measurement Protocol: Selectivity index, ratio of GI50 for human HCT116 cells to MIC90 for active stage of Mycobacterium tuberculosis H37Ra
- Format: toxicity, cell-based, HCT-116
- Setup Conditions: read-out: Selectivity Index
// selectivity ratio lookup, one value per entry

C=CCCCCCCCc1cc2c(=O)n(CCBr)cnc2s1 : 12
CCCCCCCCCCc1cc2c(=O)n(CCBr)cnc2s1 : 4
CCCCCCCc1cc2c(=O)n(CCCBr)cnc2s1 : 6

Item "CCCCCn1cnc2sc(CC)cc2c1=O" has what recorded selectivity ratio?
2

Follow-up entry: "CO[C@H]1/C=C/O[C@@]2(C)Oc3c(C)c(O)c4c(O)c(c(/C=N/N5CCN(C)CC5)c(O)c4c3C2=O)NC(=O)/C(C)=C\C=C\[C@H](C)[C@H](O)[C@@H](C)[C@@H](O)[C@@H](C)[C@H](OC(C)=O)[C@@H]1C"
196

Follow-up entry: "CCCCCc1cc2c(=O)n(CCC)cnc2s1"
2

Follow-up entry: "CCCCCCCc1cc2c(=O)n(CC#N)cnc2s1"
40

Follow-up entry: "CCCCCc1cc2c(=O)n(CC3CC3)cnc2s1"
3
